Molecular target: monkey GPC3-His protein (monkey)
Test: ELISA, monkey GPC3-His coated; antibody 13.33 nM
Catalogue of OD450 nm readings, one per entry.
Answer as a number with no unit attached.

Input: Tell me the measured OD450 nm of hAb005LH2L1b (antibody, human IgG1, V domains shown) VH: EVQLVQSGAEVKKPGASVKVSCKASGYTFTDYEMHWVRQAPGQGLEWMGAIDPETGNTAYIQKFKGRVTLTTDKSTSTAYMELRSLRSDDTAVYYCTRFYSYSHWGQGTTVTVSS VL: DIVMTQTPLSLPVTPGEPASISCRSSQSLVHSNRNTYLHWYLQKPGQSPQLLIYKVSNRFSGVPDRFSGSGSGTDFTLKISRVEAEDVGVYYCSQNTHVPPTFGGGTKVEIK , please.
Output: 1.24

Input: Check hAb003LH2L1 (antibody, human IgG1, V domains shown) VH: EVQLVQSGAEVKKPGSSVKVSCKASGYRFTDYEMHWVRQAPGQGLEWMGTIDPETGNTAYTQKFMDRVTITADKSTSTAYMELSSLRSEDTAVYYCTRGYSFTYWGQGTLVTVSS VL: DIVMTQTPLSLPVTPGEPASISCRSSQNIVHSNGNTYLQWYLQKPGQSPQLLIFKVSNRFSGVPDRFSGSGSGTDFTLKISRVEAEDVGVYYCFQGSHVPFTFGQGTKLEIK too.
Output: 2.44
